Target: plasma kallikrein (Homo sapiens)
Construct: from tissue; host or cells: sodium citrate collected human plasma (78% final)
Sequence (P03952 391-638 limits assumed): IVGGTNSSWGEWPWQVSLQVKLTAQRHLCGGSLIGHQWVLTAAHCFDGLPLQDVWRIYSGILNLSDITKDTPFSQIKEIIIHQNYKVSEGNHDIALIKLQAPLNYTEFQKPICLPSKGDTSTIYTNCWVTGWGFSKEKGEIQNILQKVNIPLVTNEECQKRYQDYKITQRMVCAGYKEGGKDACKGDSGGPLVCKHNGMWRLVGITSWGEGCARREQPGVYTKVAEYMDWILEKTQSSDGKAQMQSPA
Sequence (P03952 20-390 partner limits assumed): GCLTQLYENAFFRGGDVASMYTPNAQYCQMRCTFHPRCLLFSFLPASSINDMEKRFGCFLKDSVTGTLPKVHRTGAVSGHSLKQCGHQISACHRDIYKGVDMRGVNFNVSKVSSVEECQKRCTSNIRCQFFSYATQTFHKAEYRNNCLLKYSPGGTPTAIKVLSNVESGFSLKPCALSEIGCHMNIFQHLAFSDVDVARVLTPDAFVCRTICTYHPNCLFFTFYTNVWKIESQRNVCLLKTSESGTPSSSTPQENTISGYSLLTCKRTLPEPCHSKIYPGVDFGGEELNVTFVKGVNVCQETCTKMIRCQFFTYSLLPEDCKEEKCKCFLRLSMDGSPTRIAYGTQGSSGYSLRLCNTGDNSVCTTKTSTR
Assay: Neat human plasma assay: contact pathway-activated (FXIIa) plasma, PFR-AMC substrate
Type: biochemical
Conditions: citrated human plasma (78% final), 10 nM human FXIIa, 100 μM PFR-AMC, room temperature
Experimental: To analyze inhibition of plasma kallikrein in an ex vivo setting, the potency of compounds was measure in contact pathway-activated plasma assays. In a fluorogenic peptide substrate assay, test compounds dissolved in DMSO were added to sodium citrate collected human or rat plasma in a 96-well microplate. […] Fluorescence was immediately monitored by excitation/emission wavelengths of 360 nm/480 nm respectively over a period of 5 minutes in a microplate reader. […]
Property: IC90; scope: individual molecules

Sample answers from the record:
Cc1ccnc([C@H]2C[C@@H]2C2=NS(=O)(=O)c3cc4c(cc3N2)N(Cc2cn3cc(C5CC5)ccc3n2)CCO4)n1 [Example 93] :: 1500 to 10000 nM
CN1C(=O)CN(c2cc(C3CC3)cn3cc(CNc4ccc5c(=O)[nH]c([C@H]6C[C@@H]6c6cccc(Cl)c6)nc5c4)nc23)C1=O [Example 6] :: 1500 to 10000 nM
COc1cc([C@H]2C[C@@H]2c2nccc(C)n2)nc2cc(N3C[C@@H](O)C[C@@H]3c3cn4cc(C5CC5)cc(N5CC(=O)N(C)C5=O)c4n3)ccc12 (relative stereo) [Example 67] :: 400 to 1500 nM
Cc1ccnc([C@H]2C[C@@H]2c2cc(N(C)CC(C)(C)O)c3ccc(NCc4cn5cc(C6CC6)cc(N6CC(=O)N(C)C6=O)c5n4)cc3n2)n1 [Example 100] :: ≤ 400 nM

Inquiry: Given COc1cc(NCc2cn3cc(C)cc(N4CC(=O)N(C)C4=O)c3n2)cc2nc([C@H]3C[C@@H]3c3nccc(C)n3)ccc12 (racemic) [Example 104] , state its recorded IC90.
Reply text: 400 to 1500 nM

Inquiry: Could you do the same for COc1cc2ccc([C@H]3C[C@@H]3c3nccc(C)n3)nc2cc1NCc1cn2cc(C3CC3)cc(N3CC(=O)N(C)C3=O)c2n1 (racemic) [Example 84] , please?
Reply text: 1500 to 10000 nM

###

Target: human activated kallikrein enzyme (Homo sapiens, UniProt P03952)
Sequence (P03952 391-638 limits assumed): as the sequence (P03952 391-638 limits assumed) above
Sequence (P03952 20-390 partner limits assumed): as the sequence (P03952 20-390 partner limits assumed) above
Assay: Inhibition of activated plasma kallikrein, fluorogenic peptide substrate (PFR-AMC) assay, 500 pM enzyme format
Type: biochemical
Details: 500 pM activated kallikrein, 300 uM PFR-AMC, 30 min preincubation, 10 min reaction, room temperature; read-out: Primary Dose Response Assay: Average EC50
ENDPOINT LABEL: EC50

Cc1ccnc([C@H]2C[C@@H]2c2cc(N3CCOCC3)c3ccc(NCc4cn5cc(C6CC6)cc(N6CC(=O)N(C)C6=O)c5n4)cc3n2)n1 (racemic) :: ≤ 1 nM

Inquiry: Entry under review: Cc1ccnc([C@H]2C[C@@H]2c2cc(N3CC4(COC4)C3)c3ccc(NC(C)c4cn5cc(C6CC6)cc(N6CC(=O)N(C)C6=O)c5n4)cc3n2)n1 (stereo partly drawn) . Reported EC50?
Reply text: 1 to 10 nM

Inquiry: Another compound: Cc1ccnc([C@H]2C[C@@H]2c2cnc3ccc(NCc4cn5cc(C6CC6)cc(N6CC(=O)N(C)C6=O)c5n4)cc3c2)n1 (racemic)
Reply text: 100 to 6500 nM

Inquiry: Request: Cc1ccnc([C@H]2C[C@@H]2c2cc(N3CC4(COC4)C3)c3ccc(OCc4cn5cc(C6CC6)cc(N6CC(=O)N(C)C6=O)c5n4)cc3n2)n1
Reply text: ≤ 1 nM

Inquiry: # repeat for Cc1ccnc([C@H]2C[C@@H]2c2cc(-n3cncn3)c3ccc(NCc4cn5cc(C6CC6)cc(N6CC(=O)N(C)C6=O)c5n4)cc3n2)n1 (racemic)
Reply text: 1 to 10 nM

Inquiry: Param item: Cc1ccnc([C@H]2C[C@@H]2c2cc(N(C)C)c3ccc(NCc4cn5cc(C6CC6)ccc5n4)cc3n2)n1 (racemic)
Reply text: ≤ 1 nM
